target: human recombinant CYP3A4 (Homo sapiens, UniProt P08684); construct: purchased Life Technologies P2858; host or cells: baculosomes (baculovirus-infected insect cell microsomes); experiment: CYP3A4 inhibition, Vivid CYP450 blue screening kit with baculosomes; assay type: biochemical; conditions: EVG with ethanol at 20 mM
Sequence (P08684 whole entry): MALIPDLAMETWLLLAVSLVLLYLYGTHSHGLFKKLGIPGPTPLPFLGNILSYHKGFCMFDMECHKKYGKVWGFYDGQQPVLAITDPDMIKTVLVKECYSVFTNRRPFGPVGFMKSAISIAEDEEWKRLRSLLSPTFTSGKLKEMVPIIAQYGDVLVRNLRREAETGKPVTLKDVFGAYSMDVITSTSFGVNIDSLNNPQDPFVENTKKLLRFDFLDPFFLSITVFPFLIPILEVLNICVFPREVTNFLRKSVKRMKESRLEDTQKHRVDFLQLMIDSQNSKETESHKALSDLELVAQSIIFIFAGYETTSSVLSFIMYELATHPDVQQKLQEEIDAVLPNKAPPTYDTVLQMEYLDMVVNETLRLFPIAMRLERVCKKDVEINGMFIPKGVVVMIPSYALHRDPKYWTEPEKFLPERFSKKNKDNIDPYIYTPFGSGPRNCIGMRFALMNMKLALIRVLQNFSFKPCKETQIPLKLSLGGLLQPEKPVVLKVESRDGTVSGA

>  <COMPOUND_STRUCTURE_STRING>
COc1cc2c(cc1Cc1cccc(Cl)c1F)c(=O)c(C(=O)O)cn2[C@H](CO)C(C)C

>  <IC50, µM>
17.5

$$$$

---

assay: Substrate (saturation) kinetics of EVG metabolism in human liver microsomes; assay type: in vitro ADME; conditions: human, pH 7.4, EVG 4-200 μM, COBI at same ratio, EtOH 20 mM

>  <COMPOUND_STRUCTURE_STRING>
COc1cc2c(cc1Cc1cccc(Cl)c1F)c(=O)c(C(=O)O)cn2[C@H](CO)C(C)C

>  <Km at 7 min (µM)>
68

$$$$
